System Name: c-kit mutant D816V (Homo sapiens, UniProt P10721, D816V/DEL694-753)
Construct: residues 551-934, kinase insertion domain residues 694-753 deleted; 6x-histidine (N); made in house; host or cells: E. coli Arctic Express (DE3) RIL (Stratagene)
Sequence (P10721 with tags, fused parts or gaps DEL694-753/D816V): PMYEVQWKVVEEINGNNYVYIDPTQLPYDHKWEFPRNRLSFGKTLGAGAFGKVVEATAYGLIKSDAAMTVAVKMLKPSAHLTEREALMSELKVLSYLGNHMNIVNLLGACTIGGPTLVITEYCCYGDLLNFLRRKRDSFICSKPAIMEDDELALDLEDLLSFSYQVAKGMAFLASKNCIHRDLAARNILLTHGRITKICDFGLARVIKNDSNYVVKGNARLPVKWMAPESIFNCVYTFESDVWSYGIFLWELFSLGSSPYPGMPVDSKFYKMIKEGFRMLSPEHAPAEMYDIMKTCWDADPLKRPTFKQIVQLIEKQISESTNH
Assay Explanation: c-Kit mutant D816V biochemical assay, AlphaScreen
Measurement Context: c-kit D816V biochemical inhibitory activity; read-out: Biochemical activity (IC50 μM) Kit D816V
Assay Endpoint: IC50

[[record]]
compound = "O=C(NCCc1ccc(F)cc1)NC1CCN(c2ncnc3[nH]ccc23)CC1"
endpoint_result = "10 to 200 µM"


In: Find the recorded IC50 belonging to Cc1ccc(S(=O)(=O)Nc2ccc(-c3ncnc4[nH]cc(C)c34)cc2)cc1 and report it.
Out: 0.0001 to 1 µM

In: Find the recorded IC50 belonging to O=S(=O)(NC1CCN(c2ncnc3[nH]c(-c4ccc(Cl)cc4)cc23)CC1)c1cc2ccccc2s1 and report it.
Out: 1 to 10 µM

In: Find the recorded IC50 belonging to CC1CN(c2ncnc3[nH]c(-c4ccncc4)cc23)CCN1C(=O)Nc1ccccc1 (stereo not shown) and report it.
Out: 1 to 10 µM

In: Find the recorded IC50 belonging to COc1cc(-c2cc3ncnc(N4CCN(C(=O)N[C@@H](C)c5cccc(Cl)c5)C(C)(C)C4)c3s2)ccn1 and report it.
Out: 0.0001 to 1 µM

In: Find the recorded IC50 belonging to CC(=N)Nc1ccc(-c2ncnc3cc(C4=CCN(C(=O)N5CCOCC5)CC4)sc23)cc1 and report it.
Out: 0.0001 to 1 µM

In: Find the recorded IC50 belonging to CC(C)Oc1ccc(S(=O)(=O)NC2CCN(c3ncnc4[nH]c(-c5ccc(Cl)cc5)cc34)CC2)cc1 and report it.
Out: 0.0001 to 1 µM

In: Find the recorded IC50 belonging to COc1ccc(-c2cc3c(N4CCN(C(=O)Nc5ccc(OC(F)(F)F)cc5)CC4)ncnc3[nH]2)cn1 and report it.
Out: 10 to 200 µM

In: Find the recorded IC50 belonging to Cc1ccc(S(=O)(=O)NC2CCN(c3ncnc4[nH]c(-c5cn(C)nc5C)cc34)CC2)cc1 and report it.
Out: 0.0001 to 1 µM

In: Find the recorded IC50 belonging to CC(C)(C)OC(=O)N1CCN(c2ncnc3[nH]c(C(=O)Nc4ccccc4)cc23)CC1 and report it.
Out: 0.0001 to 1 µM

In: Find the recorded IC50 belonging to COc1cc2ncnc(-c3ccc(NS(C)(=O)=O)cc3F)c2cc1OCCCN1CCOCC1 and report it.
Out: 0.0001 to 1 µM

In: Find the recorded IC50 belonging to O=C(Nc1ccc(OC(F)(F)F)cc1)N1CCN(c2ncnc3[nH]c(-c4ccccc4F)cc23)CC1 and report it.
Out: 1 to 10 µM

In: Find the recorded IC50 belonging to CNS(=O)(=O)c1ccc(-c2ncnc3[nH]c(-c4ccc(F)cc4)cc23)cc1 and report it.
Out: 0.0001 to 1 µM

In: Find the recorded IC50 belonging to C[C@H](NC(=O)N1CCN(c2ncnc3cc(-c4ccc(F)cc4)sc23)CC1(C)C)c1cccc(OC(F)F)c1 and report it.
Out: 0.0001 to 1 µM

In: Find the recorded IC50 belonging to COc1cccc([C@H](C)NC(=O)N2CCN(c3ncnc4[nH]c(-c5ccc(C#N)cc5)cc34)CC2(C)C)c1 and report it.
Out: 1 to 10 µM

In: Find the recorded IC50 belonging to Cc1ncc(-c2cc3c(N4CCC(NS(=O)(=O)c5ccc(OC(F)(F)F)cc5)CC4)ncnc3[nH]2)s1 and report it.
Out: 10 to 200 µM
